- ASSAY_EXPLANATION: protein stability index of a GFP-peptide fusion (GPS, HEK-293T) (PSI 1-6); higher = more stable;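 also: 24-mer peptide tiles fused after GFP, lentivirally expressed, FACS-sorted into six equal bins by GFP/DsRed ratio, decoded by Illumina sequencing, PSI is the read-weighted mean bin number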
- STATED_CONDITIONS: treatment: DMSO; c terminus: a fixed tail appended
ENDPOINT_LABEL: protein stability index
// no unit, no text: just the number

Consider the sequence LHDNHEQMPTEIEFPESRKPISTK [ZNF649] and give its recorded protein stability index.
5.1

Complete the entry with protein stability index for KERKLECLPPEPSPDDPESVKIIF [FAF2]
3.97

Identify measured protein stability index associated with VAASPAPAGERRIYRHRIPSTICF [ZNF511]
2.51

Give a short answer stating reported protein stability index for APRTSSCAERLQSEEQVSKNLFGP [FCHO1] .
4.21

Retrieve protein stability index measured for PRGQEGSRQDKPLSPAGSSQEAAD [YJU2B] and print it.
5.54

Using known records, supply protein stability index for PTMHLESPALQVMGPAQEAPVAEA [ZNF449]
5.22

Give recorded protein stability index. EFDYLKSLEIEEKINKIRWLPQQN [PPP2R2B]
2.62

Provide only the value of recorded protein stability index for LAAAVVQEHSNSVGGQDTGATWRT [C18orf25]
4.22
